B1: TBX5 (parent)
chain: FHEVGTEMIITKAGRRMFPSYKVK

Variants of: B1
Experiment: protein stability index of a GFP-peptide fusion (GPS, HEK-293T) (PSI 1-6); higher = more stable;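 also: lentivirally expressed fusions sorted by FACS into six bins by GFP to DsRed ratio, PSI derived from sequencing read proportions per bin multiplied by bin number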
Conditions: c terminus: a fixed tail appended
For each entry below, report its protein stability index value.

Req: Which protein stability index is reported for this variant? M17T
Resp: 1.98

Req: What does the record list as protein stability index for R16P ?
Resp: 2.11

Req: Field request: protein stability index | item: V4H
Resp: 1.85

Req: I would be grateful if you could share the reported protein stability index for R16N .
Resp: 2.54

Req: Which protein stability index is listed for G5C ?
Resp: 2.02

Req: Request the reported protein stability index associated with P19E
Resp: 2.19

Req: # lookup: protein stability index of Y21W
Resp: 1.87

Req: GET /values?readout=protein stability index&item= S20G
Resp: 1.93

Req: Need protein stability index, item R15W
Resp: 1.53

Req: What does the data say about its protein stability index? Entry: V4R
Resp: 1.42

Req: Returns the measured protein stability index for the input variant. Input: F18A
Resp: 2.76

Req: State the recorded protein stability index for this entry: M17I
Resp: 1.98

Req: Give the measured protein stability index of K22W .
Resp: 1.98

Req: Which value of protein stability index has been reported for E7Q in the records?
Resp: 1.81

Req: For the variant H2W , what protein stability index is on record?
Resp: 1.57

Req: Entry G5V has what protein stability index?
Resp: 1.23

Req: Consider the variant shown here: H2P What is its recorded protein stability index?
Resp: 2.27

Req: What does the data say about its protein stability index? Entry: G5L
Resp: 1.92

Req: Tell me the measured protein stability index of R15H , please.
Resp: 2.14

Req: Which measured protein stability index value corresponds to Y21M ?
Resp: 1.95

Req: Quick check: protein stability index of G14Q ?
Resp: 2.17

Req: Please report the recorded protein stability index for G5Q .
Resp: 2.13

Req: I would be grateful if you could share the reported protein stability index for V23D .
Resp: 2.52

Req: I would be grateful if you could share the reported protein stability index for K12E .
Resp: 1.83

Req: Reported protein stability index for M8I : what is it?
Resp: 1.33

Req: Endpoint output: protein stability index of S20V . Value?
Resp: 1.97

Req: Look up protein stability index: T11L
Resp: 2.14

Req: Quick check: protein stability index of P19V ?
Resp: 1.77

Req: I would be grateful if you could share the reported protein stability index for A13T .
Resp: 1.68

Req: So what's the measured protein stability index for this one? P19A
Resp: 2

Req: Look up protein stability index: G14F
Resp: 2.41

Req: State the recorded protein stability index for this entry: K12P
Resp: 2.12

Req: Look at this variant and give its reported protein stability index. M8F
Resp: 1.59

Req: Name the recorded protein stability index for E7P .
Resp: 1.71

Req: Fill in the blank: the reported protein stability index of R15E is ____.
Resp: 1.74

Req: Record request: protein stability index value, item T6M
Resp: 1.37

Req: For the variant T6K , what protein stability index is on record?
Resp: 2.23

Req: Could you tell me which protein stability index is on file for K24N ?
Resp: 1.08

Req: Using the record for M17C , report its protein stability index.
Resp: 2.05

Req: Any idea what its protein stability index is? The variant is P19F
Resp: 1.79

Req: Looking for the measured protein stability index of E3K , can you help?
Resp: 1.45

Req: I would be grateful if you could share the reported protein stability index for F18Y .
Resp: 2.07

Req: Could you share which protein stability index value was measured for G14T ?
Resp: 2.42

Req: Given the variant M8K , what is its reported protein stability index?
Resp: 2.68

Req: Given P19Q , state its recorded protein stability index.
Resp: 1.98

Req: Consider the variant I9M and give its measured protein stability index.
Resp: 2.19

Req: Entry under review: P19K . Reported protein stability index?
Resp: 3.38

Req: What measured protein stability index goes with G14R ?
Resp: 1.64

Req: # protein stability index lookup, item P19R
Resp: 2.89

Req: Look at this variant and give its reported protein stability index. E3R
Resp: 2.58

Req: Form field: reported protein stability index of I10M
Resp: 1.63

Req: Quick one: protein stability index for F1M ?
Resp: 3.02

Req: Fill in the blank: the reported protein stability index of I9A is ____.
Resp: 2.38

Req: Requested read-out: protein stability index. Entry: Y21I
Resp: 1.48

Req: Please give the measured protein stability index for this variant: T11M
Resp: 1.53

Req: Field request: protein stability index | item: V23C
Resp: 1.84

Req: Item R16F has what recorded protein stability index?
Resp: 2.31

Req: May I ask what protein stability index has been recorded for V23T ?
Resp: 2.14

Req: Give the measured protein stability index of E3D .
Resp: 1.26

Req: Please give the measured protein stability index for this variant: K22C
Resp: 1.86

Req: // protein stability index lookup, key: T11D
Resp: 2.13

Req: Using the record for T6L , report its protein stability index.
Resp: 3.1

Req: Which protein stability index value is on record for A13S ?
Resp: 1.87

Req: Please report the recorded protein stability index for K22V .
Resp: 1.43

Req: Requested read-out: protein stability index. Entry: R16Q
Resp: 1.85

Req: Which protein stability index is reported for this variant? M17S
Resp: 2.68

Req: Returns the measured protein stability index for the input variant. Input: E3F
Resp: 2.39

Req: # lookup: protein stability index of M17E
Resp: 2.83

Req: GET /values?readout=protein stability index&item= G5A
Resp: 2.44

Req: Value lookup for protein stability index; key = Y21N
Resp: 2.55

Req: // lookup protein stability index for M8D
Resp: 3.29

Req: Dear colleague, I am looking for the recorded protein stability index of the following variant: G14Y
Resp: 2.17

Req: # input variant: H2M ; wanted: its protein stability index
Resp: 2.03

Req: Look up protein stability index: R15P
Resp: 1.87

Req: If you can, please state the reported protein stability index value of K24G .
Resp: 2.03

Req: Request the reported protein stability index associated with T11K
Resp: 2.59

Req: Would you mind telling me what protein stability index value was observed for H2E ?
Resp: 3.09

Req: Look up protein stability index for this variant: G14E
Resp: 2

Req: Given S20L , state its recorded protein stability index.
Resp: 1.86

Req: Fill blank: measured protein stability index of the variant H2F is ____.
Resp: 2.39

Req: Name the recorded protein stability index for I10S .
Resp: 3.26

Req: Entry E3S : reported protein stability index = ?
Resp: 2.8

Req: # query: protein stability index of entry M8L
Resp: 1.66

Req: Consider the variant shown here: V4Y What is its recorded protein stability index?
Resp: 2.46

Req: Please give the measured protein stability index for this variant: V4L
Resp: 2.09

Req: What measured protein stability index goes with S20T ?
Resp: 2.69

Req: Recorded protein stability index for Y21E , please?
Resp: 2.92

Req: For the variant shown here, T11Y , give the reported protein stability index.
Resp: 1.02

Req: Which protein stability index value is on record for V4I ?
Resp: 2.41

Req: # input variant: M8H ; wanted: its protein stability index
Resp: 2.33

Req: Param item = G5K ; retrieve measured protein stability index.
Resp: 1.88
